# key: entry, value: Human CP % Max Inhibition, hemolysis assay, NHS
molecular target: human C5 (human, UniProt P01031 19-1676); experiment: cell-based or functional assay
measuredAttribute: Human CP % Max Inhibition, hemolysis assay, NHS (%)

binder: H4H12169P (antibody, human IgG4, V domains shown, H4H: human IgG4 Fc with S108P hinge mutation) VH: EVQLVESGGGLAQPGGSLRLSCAASGFTFRSYAMSWVRQAPGKGPEWVSGIGGNGVTTYYADSVKGRFTISRDNSKNTLFLQMNSLRAEDTAVYYCVQGGLGGYFTGYWGQGTLVTVSS VL: DIQMTQSPSSLSASVGDRVTITCRASQSISTYLNWYQQNPGKAPKLLIFDASSLQSGVPSRFSGSGSGTDFTLTIRGLQPEDFATYYCQQSYSAPLTFGGGTKVEIK
numericResult: 98.3
//
binder: H4H12159P (antibody, human IgG4, V domains shown, H4H: human IgG4 Fc with S108P hinge mutation) VH: QVQLVESGGGVVQPGRSLRLSCGASGFTFSTYGMHWVRQAPGKGLEWVAVIWDDGNNKYYADSVKGRFTISRDNSKNTLYLQMNSLRAEDTAVYYCARDSEVAPVGDYWGQGTLVTVSS VL: DIQMTQSPSTLSASVGDRVTIICRASQSINRWLAWYQQKPGKAPKLLIYKASSLESGVPSRFSGSGSGTEFTLTISSLQPDDFAAYYCQQYNDYSYTFGQGTKLEIK
numericResult: 97.9
//
binder: H4H12168P (antibody, human IgG4, V domains shown, H4H: human IgG4 Fc with S108P hinge mutation) VH: QVQLVESGGGVVQPGGSLRLSCAASGFTFGGHAMHWVRQAPGKGLEWLAVISSDGSNKQYADSVKGRFTISRDNPKNTLYLQMNSLRVGDTAIYYCAKEVAPRYYYYGLDVWGQGTTVTVSS VL: DIQMTQSPSSLSASVGDRVTITCRASQDISNFLAWYQQKPGKVPKLLIYTASTLQSGVPSRFSGSGSGTDFTLTVSSLQPEDVATYYCQKYAGALTFGPGTKVDIK
numericResult: 97.5
//
binder: H4H12170P (antibody, human IgG4, V domains shown, H4H: human IgG4 Fc with S108P hinge mutation) VH: QVQLVESGGGVVQPGRSLRLSCAASGFTFSGYGMHWVRQAPGKGLEWVALIWLDGSNDYYADSVKGRFTISRDNSKNTLYLQMNRLRAEDTAVYYCARDGPVAAIPDYWGQGTLVTVSS VL: DIQMTQSPSTLSASVGDRVTITCRASQSISRWLAWYQLKPGKAPKLLIYKASSLESGVPSRFSGSGSGTDFTLTISSLQPDDFATYYCQQYNTYSYTFGQGTKLEIK
numericResult: 98.2
//
binder: H4H12167P (antibody, human IgG4, V domains shown, H4H: human IgG4 Fc with S108P hinge mutation) VH: QVQLVESGGGLVKPGGSLRLSCAASGFTFSDSYMSWIRQAPGKGLEWISYIGSSGNTFYYADSVKGRFTISRDNANNLLYLQMTSLRAEDTAVYYCAREEGDFWSAVDSWGQGTLVTVSS VL: DIQLTQSPSFLSASVGDRVTITCWASQGISSYLAWYQQKPGKAPKLLIHTASTLQSGVPSRFSGSGSGTEFTLTISNLQPEDFATYYCQQLNSYPFTFGPGTKVDIK
numericResult: 99.9
